Test system: crop plants (cereal)
METHOD: Container trials with cereal in the greenhouse, mefenpyr 1 day prior to herbicide application (Example B, use of safeners)
Assay type: in vivo
TEST SETTINGS: 28 days after application; 100 g of a.i./ha; without safener
For each entry below, report its Summer barley observed (%) value.
Answers are plain numbers, in %.

Below are worked cases with known answers.
>>> recorded_measurement("CCc1cc(C)cc(CC)c1C1=C(OC(=O)COC)[C@H]2CCCC[C@@H]2C1=O (relative stereo)")
50
>>> recorded_measurement("CCOC(=O)OC1=C(c2c(CC)cc(C)cc2CC)C(=O)C2CCCCC12 (stereo not drawn)")
90
>>> recorded_measurement("CCc1cc(C)cc(C)c1C1=C(O)C2CCCCCC2C1=O (stereo not drawn)")
90
>>> recorded_measurement("CCc1cc(C)cc(CC)c1C1=C(OC(=O)COC)[C@H]2CCCC[C@H]2C1=O (relative stereo)")
95
>>> recorded_measurement("CCC(=O)OC1=C(c2c(C)cc(C)cc2CC)C(=O)C2CCCCC12 (stereo not drawn)")
95
>>> recorded_measurement("CCOC(=O)OC1=C(c2c(C)cc(C)cc2CC)C(=O)C2CCCCC12 (stereo not drawn)")
80
>>> recorded_measurement("CCc1cc(C)cc(C)c1C1=C(OC(=O)COC)C2CCCCC2C1=O (stereo not drawn)")
90
>>> recorded_measurement("CCc1cc(C)cc(CC)c1C1=C(OC(=O)C(C)(C)C)[C@H]2CCCC[C@@H]2C1=O (relative stereo)")
80

Okay, next one:
Which Summer barley observed (%) is reported for this molecule? CCc1cc(C)cc(CC)c1C1=C(OC(=O)OC)C2CCCCC2C1=O (stereo not drawn)
90

Source listed as patent US8168832B2.
